# Test system: SN12C
# testName: NCI tumour cell line growth inhibition, 48 h
Active and inactive are the calls of the source. Cut-off read from the data, not from the text of the source: active = GI50 up to about 1.1 µM and inactive = higher. Where a SMILES comes first, the peptide text is derived from it. The star is where a group is joined. Boc = CC(C)(C)OC(=O)*
Pick one: active, inactive

Lab log entry: N[C@@H](CCC(=O)NC(Cc1ccccc1)C(=O)NCP(=O)(O)O)C(=O)O (stereo partly specified) — outcome as called in the assay?
inactive

Lab log entry: `NC(=O)ON=C1CCN(Cc2ccccc2)CC1` — outcome as called in the assay?
inactive

Lab log entry: `c1ccc(-n2nc3ccc4nonc4c3n2)cc1` — outcome as called in the assay?
inactive

Lab log entry: CCC(=O)Nc1ccc(NC(C#N)c2cccc(Oc3ccccc3)c2)cc1 (stereo unspecified) — outcome as called in the assay?
inactive

Lab log entry: `CN(C)CCCNC(=O)c1cc(NS(=O)(=O)c2ccc3c(c2)C(=O)c2ccccc2C3=O)cn1C` — outcome as called in the assay?
inactive

Lab log entry: `CCOC(=O)c1ncn2c1[nH]c(=S)c1ccccc12` — outcome as called in the assay?
inactive

Lab log entry: CCC(C)C(=O)OC1C(=O)OC2CC3C(C)=CC(=O)C(O)C3(C)C3C4(O)OCC23C1C(C)C4O (stereo unspecified) — outcome as called in the assay?
active

Lab log entry: CCOC(=O)C(CC(C)C)NC(=O)C(Cc1ccccc1)NC(=O)CNC(=O)OC(C)(C)C (stereo not drawn) (Boc-Gly-Phe-Leu-OEt; configuration not given here) — outcome as called in the assay?
inactive

Lab log entry: `O=C1c2ccccc2C(=O)c2[nH]c(Cc3ccccc3F)nc21` — outcome as called in the assay?
inactive

Lab log entry: `N#Cc1nc(C(F)(F)F)oc1N` — outcome as called in the assay?
inactive

Lab log entry: `Cc1ccc([N+](=O)[O-])cc1S(=O)(=O)Nc1ccc(C(=O)/C=C/c2cccs2)cc1` — outcome as called in the assay?
inactive

Lab log entry: `O=C(O)CSc1nnc(COc2ccccc2)n1-c1ccccc1` — outcome as called in the assay?
inactive

Lab log entry: `C=CCO/N=C(\OC(=O)c1ccc([N+](=O)[O-])cc1)c1ccccc1` — outcome as called in the assay?
inactive

Lab log entry: `C=CC[C@H](N=C(SC)SC)C(=O)N1C(=O)N(C)[C@@H](C)[C@H]1c1ccccc1` — outcome as called in the assay?
inactive

Lab log entry: `COc1ccc2[nH]c3c(C)cc([N+](=O)[O-])c(C)c3c2c1` — outcome as called in the assay?
inactive

Lab log entry: O=C1/C(=C\c2cccc(Oc3ccccc3)c2)SC(c2ccccc2)N1c1ccc(Cl)cc1 (stereo unspecified) — outcome as called in the assay?
inactive

Lab log entry: Clc1ccc2c(NC3CCC(N4CCCCC4)CC3)ccnc2c1 (stereo unspecified) — outcome as called in the assay?
inactive

Lab log entry: `CSC(SC)=C(C(=O)c1ccc(Cl)cc1)n1c(=O)sc2cc(Br)ccc21` — outcome as called in the assay?
inactive

Lab log entry: `C[C@@H](NC(=O)Nc1cccc(C(=O)Nc2cc(C(C)(C)C)ccc2C(=O)O)n1)c1ccccc1` — outcome as called in the assay?
inactive

Lab log entry: CCOC(=O)[C@@]12C[C@](/C=C/OC)(O[Si](C)(C)C)[C@@]13c1cc(OC)c(OC)cc1CCN3C(=O)C2O (stereo partly specified) — outcome as called in the assay?
inactive

Lab log entry: COc1ccccc1C1ON=C(c2ccc([N+](=O)[O-])cc2)N1C12CC3CC(CC(C3)C1)C2 (stereo unspecified) — outcome as called in the assay?
inactive

Lab log entry: `N#Cc1ccc(OCCSCCCCCCCCCCSCCOc2ccc(C#N)cc2)cc1` — outcome as called in the assay?
inactive

Lab log entry: `NC(=S)N/N=C1\CCCC\C1=C/c1ccccc1` — outcome as called in the assay?
inactive

Lab log entry: `Cc1ccc(S(=O)(=O)NC2=NS(=O)(=O)c3cc(C)c(Cl)cc3S2)cc1` — outcome as called in the assay?
inactive

Lab log entry: `CN(C)c1ccc(/C=C/C=C\c2cc(/C=C/C=C/c3ccc(N(C)C)cc3)[s+]c3ccccc23)cc1.[O-][Cl+3]([O-])([O-])[O-]` — outcome as called in the assay?
inactive

Lab log entry: `COc1ccc(/C=C2\CCS(=O)(=O)c3ccccc3C2=O)cc1` — outcome as called in the assay?
inactive

Lab log entry: `CCOC(=O)c1[nH]cc(C)c1-c1ccn(-c2ccccc2)c1` — outcome as called in the assay?
inactive

Lab log entry: `COc1cc2c(oc(=O)c3cc4ccoc4c(OC)c32)c2cccc(O)c12` — outcome as called in the assay?
inactive

Lab log entry: `O=C1C=C(NCCc2cc(Br)c(O)c(Br)c2)C(=O)c2[nH]cnc21` — outcome as called in the assay?
inactive

Lab log entry: CC(=O)NC(C=O)C(O[C@H](C)C(=O)NC(C)C(=O)NC(CCC(N)=O)C(=O)OCc1ccccc1)C(O)C(O)COC(=O)CCNc1c2ccccc2nc2cccc([N+](=O)[O-])c12 (stereo partly specified) — outcome as called in the assay?
inactive

Lab log entry: `CSc1nc(SC)c2c(C)c(Br)[nH]c2n1` — outcome as called in the assay?
inactive

Lab log entry: N#CC(C(=O)CCC(=O)C(C#N)c1ccccc1)c1ccccc1 (stereo unspecified) — outcome as called in the assay?
inactive

Lab log entry: O=C1CC(n2ccnc2)c2c(Cl)sc(Cl)c21 (stereo unspecified) — outcome as called in the assay?
inactive

Lab log entry: `O=C(Nc1ccccc1)c1cc(S(=O)(=O)n2ccnc2O)c(S)cc1Cl` — outcome as called in the assay?
inactive

Lab log entry: COC(=O)C1=C(C)C(=O)[C@]23C(CCCC[C@H]12)C(=O)[C@H](C(=O)OC)C3C (stereo partly specified) — outcome as called in the assay?
inactive

Lab log entry: `COc1cc([C@H]2Oc3cc(O)c4c(=O)cc(-c5ccccc5)oc4c3O[C@@H]2CO)ccc1O` — outcome as called in the assay?
inactive

Lab log entry: `COC(CN1C(=O)c2cccc3cccc(c23)C1=O)OC` — outcome as called in the assay?
inactive

Lab log entry: CC(/C(=N\Nc1ccccc1)c1ccc(O)cc1)C1C(=O)Oc2ccccc21 (stereo unspecified) — outcome as called in the assay?
inactive

Lab log entry: `CCOC(=O)C(C)(C)Oc1ccc2c(=O)cc(-c3ccccc3)oc2c1` — outcome as called in the assay?
inactive

Lab log entry: CC(C)OC1OC(CO)C(O)CC1n1cc(F)c(=O)[nH]c1=O (stereo unspecified) — outcome as called in the assay?
inactive

Lab log entry: `CCOC(=O)Cc1ccc(Nc2nc3cc(C(F)(F)F)ccc3nc2C(=O)OCC)cc1` — outcome as called in the assay?
inactive

Origin of values: ChEMBL document CHEMBL1201862
